Assay: soluble on expression in E. coli; label from the status in PepcDB or PDB records
PARAMETER: soluble on expression in E. coli

MKGEEKMPSFDIVSEVDLQEARNGVDNAVREVESRFDFRGVEATIELNDANKTIKVLSESDFQVNQLLDILRAKLLKRGIEGASLDVPDEFVHSGKTWYVEAKLKQGIESAVQKKIVKLIKDSKLKVQAQIQGEEIRVTGKSRDDLQSVMALVRGGDLGQPFQFKNFRD	not soluble
MSTEYGCQVTNKFGLPSDDDDEYDDPRELIQKVSQIAAKKKEEKSVKPAQPVKPAAAPVAATKTDGAAGRGRGGRGRGRGGAGRPRDGERVSNENGDRPQGENRRGGPRRGGERGAARPAGRGGRGGFTRENREGEEPKQEVSFEDGQDTRAPRRRGGFTLGGGPSGGRGGGRGGRGRQFDRQSGSDRTGVRSFDKKDGHGKGNWGDQKDELAGETENIAPEGAESTEPEVPREKTAEELAYEAELAVLAKQKTLKEFKAAAKADAPKFNTRKAGEGAADTFGKLVPIKKEVIPDREEDEVVVIHKAPRKQVLDISITFRNDRPERERNDRSERPQRGGPRGGGRGGGRGGQRQGGHGGRNNTPFNASDDAFPALGAK	not soluble
MKIIKRNGSEAVFDISKIMMAVSRANEVVQANQKLSKAQINAIAAQVEEVCSTRPHAMNVEEIQDLVENQIMEQQAFEVARKYITYRYIRTLKRSSN	not soluble

---

Assay: soluble on expression in E. coli; label from the status in PepcDB or PDB records
PARAMETER: soluble on expression in E. coli

SAFPIDLRGQTAFVAGVADSHGYGWAIAKHLASAGARVALGTWPPVLGLFQKSLQSGRLDEDRKLPDGSLIEFAGVYPLDAAFDKPEDVPQDIKDNKRYAGVDGYTIKEVAVKVKQDLGNIDILVHSLANGPEVTKPLLETSRKGYLAASSNSAYSFVSLLQHFGPIMNEGGSAVTLSYLAAERVVPGYGGGMSSAKAALESDTRTLAWEAGQKYGVRVNAISAGPLKSRAASAIGKSGEKSFIDYAIDYSYNNAPLRRDLHSDDVGGAALFLLSPLARAVSGVTLYVDNGLHAMGQAVDSRSMPPLQRATQEIN	soluble
QVQLQESGGGLVQPGGSLRLSCAASGFTFSNSAMSWVRQAPGKGLEWVSSISGSGGNTYSADSVKGRFTISRDNAKNSLYLQMNSLRAEDTAVYYCARDWYGMDVWGQGTTVTVSS	soluble

---

Experiment: soluble on expression in E. coli; label from the status in PepcDB or PDB records
PARAMETER: soluble on expression in E. coli

These solved cases illustrate the format of a correct answer.
MAHHHHHHMLKELNLNTTFLRQDYRTPLKQLSVDPIFCRRRGGRAILHFEMNQVQGTVAVTLTGCVAQACVPHACGAGWGNMKVEQLRSFFLSFVVVADAAQPSYFLWGEVSVHEMNGTAGNHLAIDGQSLRTCTTASVIPPLSEIPPEVFIVKAKKFRCQMHEKGFGDSTTCP	not soluble
MAHHHHHHMRGTTKPMLFLCSTAVRLNFFPLGLSAGPLNSHILLPRNNFDGRTTHGMKKIQGQSKDPQMVMSRDELKLRCEYCRFEWIHDTLCVRCPAQPSHDQREMWLHSTWMWGKQQPYKYYKYMPAVRNPRTGMPMAREDARGMNNERRGQGLTTRTLNLEKERRGISRDVSRIGQYNTRWKTRFPFPT	not soluble
MGSDKIHHHHHHMIKVALLHFGFEDYTIELANSLSKYVDLTLINPKKLSDVCGDAFDPSIRVVSFKKPRIRDPRNLLSMNAMMRIIKDIQPDVLHVQETNDPWYDWTLLLNKMPPLVTTIHDVFRHPGDKVAVFGSEYTRRIAFYRSQQLIVHTHQLKKILIEQFNLPEGRVNVIPHGELGSLYQHRGDRSNQPRDPNTLLFFGRIWPYKGLKYLLEAMPLIAECVPEVKLIIAGRGENIKEYFPNGYDENRYEIINRLIPLEEVSNLFQRSTVTVLPYIEASQSGVAALSYGMGTLVVASDVGGLSEIVQHKKDGLLVPPRDVRALADAIICLLSDRDLQQKMQTAALARCQQDLNWSNIAAQTVEVYQKTMKPIHQ	not soluble
MKQVAVISGKGGTGKTTFSATIHALEGGVVADCDVDAPNLHILLKPQILKAEDFIASKKARIMPEKCSSCGLCYDLCRFGAVVAEDGYYVDEKKCEGCAFCFNVCPERAIEMENVKTGDLYVSKTEWGYFVHARLKPGEENTGRLVTEVKNRAKEIAEESNAEFLIVDSAPGVGCPVMASLTGVDAAIIVTEPTVSGLSDMLRILELCEHFRIRPFVVVNKFDLNVNIASEIESYCSENGVEFAGRVPFDKAIPEQIANLNFPFSGKAADKMVEIWKKLREVLLEHHHHHH	soluble
GSHMRKTLVLLGAHGVGRRHIKNTLITKHPDRFAYPIPHTTRPPKKDEENGKNYYFVSHDQMMQDISNNEYLEYGSHEDAMYGTKLETIRKIHEQGLIAILDVEPQALKVLRTAEFAPFVVFIAAPTITPGLNEDESLQRLQKESDILQRTYAHYFDLTIINNEIDETIRHLEEAVELVC	soluble

Data request, read-out soluble on expression in E. coli, for MSLDSQVLEHVLPSHFAKYDKGGDEFYDLISAFHKSVRGSAPDAALYWYCRILAGGGDPLYVARRLLAIATEDIGNADPRAMQVALNAWDIFQRVGPSEGERAIAQATLYLASAPKSNAVYTAFNQAKHDAAHLPSYPVPEHLRNAPTQIMKELGFGAQYRYAHDEVGAFAAGENYFPEILKTKHYYQPTDRGLEKQIKDKLDYLASQNNQSENKRYDEGHHHHHH
soluble

---

Experiment: soluble on expression in E. coli; label from the status in PepcDB or PDB records
PARAMETER: soluble on expression in E. coli

MGSDKIHHHHHHMTSREQIIELIKSGEFTQAELARQMGVNSGALSSYLGGKYKGNVENIENVLASWLSTRDKKEKVFVEAPHFIEIPTADKVFKALDMARFCKTIVPIFGASGVGKTKACQEYKKRYQNVWMITISPSRASLNAFLYELALELGIKDAPRRKDRLSRLILDNLKDTEGLVIVDESDHLTYDSIEELRYLQEKAEVGFALIGNNKVYTKMQGGANQAHEYARLWNRIGKKCQIKASKKGDIKAVAQAWGLDVQDKDLMTVLYDIGGKAGGLRALTQYLRLAGMTAKGQGTGITLDLILTAQAEMTGSE	not soluble
MSLTDDLKVCNQTGVGEAINQIYKDDGRRCEGYESRDKKCLCISDNNTSLYAILSGHNGVTVAENALQEMAAELLLGQLNVCNTDEAVKELIRQSFMSVEKGYFDSINPHVATKTAIQLHLSADGMNQYEISQQFENVLQKLDSLNNALSVGSSAVLALIHRSHLYLGNIGNCRALLCKTDEHDTLTVTQLSVDHNLLNAEEAARLFRLGLMAQNFEGVPLYSTRCIGNYLGKAGYKDCNFLSSATAEPVIFEPEIVGGIQITPACRFLVLMSSGLCRALHEIFPGDASTGNRELVRMISEEFQNQSTLGGVAQSVVHRIVQAHHDTYMQLVEEHRSVTFNSRDDVTLLIRNFNYAEGHHHHHH	not soluble

---

Assay: soluble on expression in E. coli; label from the status in PepcDB or PDB records
PARAMETER: soluble on expression in E. coli

Example cases with answers are listed next.
MNTTQRADQQTSADRRRRELLEAADRVVLRDGPHASMNAIAAEAGITKPILYRHFGDKGGLYAALAVRHTDALLASLRAALDAPAQRRQRVEATLDTYLAAIEARPQVYRFLMHPAESAGTPGDQSEQGFDVGKHSAPLLRRMGEELAQVIEERLDVGPGTQQLARVWGHGIVGMMHAAGDWWLGERPCPREELVRTLADLLWGRLAEAGDKEGGPGF	not soluble
MTLNIYTEEWAPISFSVDGKPDGLAVQVVQEIQKRIDNQDPIKVVPWARGWKIITEQPNTVLFTMTRTAERERMFSLIGPVAVGTTNFYALKNSNLKINLEHHHHHH	not soluble
MVAAAVVGTAAVGTKAATDPRSVGTQVDDGTLEVRVNSALSKDEQIKKEARINVTAYQGKVLLVGQSPNAELSARAKQIAMGVDGANEVYNEIRQGQPIGLGEASNDTWITTKVRSQLLTSDLVKSSNVKVTTENGEVFLMGLVTEREAKAAADIASRVSGVKRVTTAFTFIKLEHHHHHH	not soluble
MSLGAMKRLALLVPERANIASLENARQGFLAANGFLRERGCAPRFDVRLVAATPQVRLDHGRITVQADTVLEAVGEVDLCVVPPIQGDPQPALQENGALIDWLAGYYKNGGEVASLCVGAALLAAGGVLDGQRAVVHWAAQSDFGRLFPAVRWVSDRVVLEANGIYTSGGAFSAAHLVLHLVDKYTDRETAIWCAKLFQLDWSREGHHHHHH	soluble
NTLGMALYADGGLMASKPYAASGKYIHRMSNFCQSCYYNPNDLLGEKACPFNALYWNFLHQNQEKLKDNPRLRYAYMNWQKMDFDKQKKTIHKAQRILADLDSANL	not soluble

Dear reader, for each entry below, please note its soluble on expression in E. coli.
1. MARLIVNALVSVPLAEIEIGFVRSGGAGGQNVNKLATAAHLRFDIAASSLPETCKTRLLDHRDRRMTAEGIIVIKAQRFGTQEKNREDALARLRGLILQALAQRRPRKPTRPTLAAKKKRLDEKTRHGEIKRLRRRIGDLEHHHHHH
2. MTRRVLLLSASVLLATAGYAPEPYYNKYGGYHKALDKKHGGYEADQTGYGGHNGMSDYGNEQGAYGHYDGKYGEAGKKSGQEYYAKGDEHGHGDEAHEKGLKKNGDAYGGKKFSYFTSGSGPYGSYQKGYYGSDGYEHDDHKSKYSSHNEDNGFKKGYDGAGAGHDDKYTSYDKEDAGHKKHHDKYDIGKYGAKQGGYAKQGHEEGWKNEAQKNSYGSRENGQEYGHPYY
3. SSAEQSFLFSREEADTLRLKVEELEGERSRLEEEKRMLEAQLERRALQGDYDQSRTKVLHMSLNPTSVARQRLREDHSQLQAECERLRGLLRAMERGGTV
4. DLYDDDDKDPTLMKISRGLLKTILEAAKSAHPDEFIALLSGSKDVMDELIFLPFVSGSVSAVIHLDMLPIGMKVFGTVHSHPSPSCRPSEEDLSLFTRFGKYHIIVCYPYDENSWKCYNRKGEEVELEVVEKD

1: not soluble; 2: not soluble; 3: soluble; 4: soluble

Go through the list and state soluble on expression in E. coli for each entry.
1. MAHHHHHHMQRMRRIGREEEAARLVWNHVSHCSSALLRQCIRRPNLLEEVTVALCRTMHRGISGRKDSWMGHRSLAVLRSGAALRQFTPALCIPLCAAALDCGVHFATVQQHVAEIYRWDERTERWVLNMVRLIADCHSALMRVPLNCSLHSSYMRGLVQRVAYELPTLSSTCSIEVQVPSRNKLLALWTIVNDDVANGRLRQLTCQLFLDPVARSAFKEMRLADEVDNCNSGTDGGGGSKCRVPRSTLKGLLNEEVFVSVAVNCTTEHAFAIFMNAFLSTRQARDKLRYMHLVLSEMPFESTDICPRCTTETGNCEVS
2. MAHHHHHHMLRFTHRALARKAAVKAGSRTSAAAGATAALHAAPAAPQNAVSIPPIPGVRSVRAFRTQKMEALQPQPAAATAGRKAFAAKGSKHVKAALKSRPSKKVKLPKKAAAPSRAQQAQQVKHAKQLKAPKSAAKEISKKAKTAKARK
3. MGSDKIHHHHHHMNQVTTYLWETHLPGGSHWSGVVRRGTTLRLTDVSGGANAAVLFYNLEEKLERYNMADTLKTQHTFCLTKGHACHSDMGRIFCCITEDTAGWHDTVCGLSDAELIQQKYGTGRYQELRNDMYRNGLDGMLVELGKWGLGRRDVVSNINFFSKVTANSVGELQFHVSHSKAGDHVDLAFAMDTLVVLSAAPHPLDPAATYRPGAVNLAVFPSTPAVTGACAHIAENARGLENTRRLYAYGGVK
4. LSLLLEVSGNPKAGNVDREHDFDDLKFEHFLASAAGAFPAFLEVAEKRIIGEGVLRAVKESMRWHRAENVHFGAFLLLVPLISSWDAGGMVDIAEAARNRLRRTDFRDSLSVLEAFRLSNARVVEAGELNLKDRKTEEEIAQKKINLYEWMKMAPEENLIARELVDGFKISIEGAKFLLSFGNSGKAVVELYYHLLSKFPDPLVIAKMGREYAEKITEWAEKARTEEERKELDEKLLKDGANPGTIADLTASSI
5. MGRFAVYEDPFVTKLMNTIGSMTFDGLGFTLLELYRDLVISADNYFMNYVNYGETPHDVGEESIEDPIYGASYPYWWTDLGPTLVLMLYRDYVFTSNREILEKNYNKIKEIIDWLIRKDMDNDCIPDSKGGYDNSYDGTHMYGASSYIASMFLSALTAFIKMSEILDVKIDDKYYRFLECGKKTFNSLWNGKYFILWKKNDEENTSCLNSQLLGQFWCDILGLPPITDHDKINTALRSIYELNFKASKYCLTNAVREDGSVDSSTAQLRSCWPRVSFAVAAHMILRGMVKEGIEVAKREWETIKELNPFDQSSRIDAIDGKYVGLMSYIGSTSVWLLKLALDKIRLEHHHHHH

not soluble
soluble
not soluble
not soluble
soluble
